Consider the following compounds and their measured pD'2 readings.
target: Histamine H2 receptor (Cavia porcellus) (UniProt P47747); assay: Histamine H2 receptor agonism activity was determined on the isolated Guinea pig Atrium was determined as pD'2; type: functional
Sequence (P47747 whole entry): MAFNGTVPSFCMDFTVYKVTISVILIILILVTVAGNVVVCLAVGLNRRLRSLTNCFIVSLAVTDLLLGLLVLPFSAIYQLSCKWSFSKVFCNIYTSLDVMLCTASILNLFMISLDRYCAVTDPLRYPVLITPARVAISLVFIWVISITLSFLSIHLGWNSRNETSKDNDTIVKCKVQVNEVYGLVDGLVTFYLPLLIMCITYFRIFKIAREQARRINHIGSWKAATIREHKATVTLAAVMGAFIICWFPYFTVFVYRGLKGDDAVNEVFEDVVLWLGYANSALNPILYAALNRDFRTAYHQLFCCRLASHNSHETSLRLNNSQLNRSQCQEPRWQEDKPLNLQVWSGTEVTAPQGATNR

Answered cases to consult:
NCCc1c[nH]c(-c2ccco2)n1 ... < 3
NCCc1c[nH]c(-c2cccc(C(F)(F)F)c2)n1 ... 3.48
NCCc1c[nH]c(-c2cccc(I)c2)n1 ... 3.76
NCCc1c[nH]c(-c2ccsc2)n1 ... < 3

Record summary for NCCc1c[nH]c(-c2cccs2)n1 : reported pD'2 = < 3

Record summary for NCCc1c[nH]c(-c2ccccc2)n1 : reported pD'2 = < 3

====

molecular target: Histamine H1 receptor (Cavia porcellus) (UniProt P31389); experiment: Contractile effect on isolated guinea pig ileal segments is a measure of H1 (histamine) receptor agonistic activity relative to histamine.; format: functional
Sequence (P31389 whole entry): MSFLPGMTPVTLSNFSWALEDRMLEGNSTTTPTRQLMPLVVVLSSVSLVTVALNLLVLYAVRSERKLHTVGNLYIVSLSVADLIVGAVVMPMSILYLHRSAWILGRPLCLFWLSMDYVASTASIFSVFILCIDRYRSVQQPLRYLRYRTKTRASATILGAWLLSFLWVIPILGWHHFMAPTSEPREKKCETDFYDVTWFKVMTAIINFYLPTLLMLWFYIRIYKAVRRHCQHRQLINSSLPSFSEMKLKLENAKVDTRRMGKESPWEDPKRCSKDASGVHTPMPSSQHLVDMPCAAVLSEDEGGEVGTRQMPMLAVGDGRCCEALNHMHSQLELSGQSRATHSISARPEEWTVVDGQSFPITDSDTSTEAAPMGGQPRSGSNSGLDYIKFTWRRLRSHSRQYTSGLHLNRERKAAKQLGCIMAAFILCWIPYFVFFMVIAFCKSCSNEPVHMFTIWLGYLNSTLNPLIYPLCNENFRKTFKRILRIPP
Could you label it MET if measured Relative activity is 8% or higher, and NOT MET otherwise?

NCCc1c[nH]c(Cc2cccs2)n1 ... NOT MET

Confirm if Relative activity reported for the molecule NCCc1c[nH]c(-c2csc(Br)c2)n1 is 8% or above.
MET

Confirm if Relative activity reported for the molecule NCCc1c[nH]c(-c2ccco2)n1 is 8% or above.
MET

Confirm if Relative activity reported for the molecule NCCc1c[nH]c(-c2cccc(F)c2)n1 is 8% or above.
MET

Confirm if Relative activity reported for the molecule NCCc1c[nH]c(-c2ccccc2C(F)(F)F)n1 is 8% or above.
NOT MET

Confirm if Relative activity reported for the molecule NCCc1c[nH]c(Cc2ccsc2)n1 is 8% or above.
NOT MET

Confirm if Relative activity reported for the molecule NCCc1c[nH]c(-c2ccc(C(F)(F)F)cc2)n1 is 8% or above.
NOT MET

Confirm if Relative activity reported for the molecule NCCc1c[nH]c(C(F)(F)F)n1 is 8% or above.
NOT MET

Confirm if Relative activity reported for the molecule Cc1cccc(-c2nc(CCN)c[nH]2)c1 is 8% or above.
MET

Confirm if Relative activity reported for the molecule NCCc1c[nH]c(-c2cccc(Cl)c2)n1 is 8% or above.
MET

Confirm if Relative activity reported for the molecule NCCc1c[nH]c(Cc2cccc(C(F)(F)F)c2)n1 is 8% or above.
NOT MET

Confirm if Relative activity reported for the molecule NCCc1c[nH]c(-c2ccsc2)n1 is 8% or above.
MET

Confirm if Relative activity reported for the molecule NCCc1c[nH]c(Cc2ccccc2Cl)n1 is 8% or above.
NOT MET

====

target: Histamine H1 receptor (Cavia porcellus); test: Contractile effect on isolated guinea pig aorta is a measure of H1 (histamine) receptor agonistic activity relative to histamine; format: functional, tissue-based
metric: Relative activity (%)
Quick reminder: number only, in %, skip the unit.

Answered cases to consult:
NCCc1c[nH]c(Cc2cccs2)n1 ... 0.8
NCCc1c[nH]c(Cc2cccc(Cl)c2)n1 ... 0.4
NCCc1c[nH]c(-c2ccccc2)n1 ... 19
NCCc1c[nH]c(-c2cccc(I)c2)n1 ... 47

Record summary for NCCc1c[nH]c(Cc2ccccc2Cl)n1 : reported Relative activity = 0.2

====

target: Histamine H1 receptor (Cavia porcellus) (UniProt P31389); assay: H1-Histamine receptor agonism on guinea pig ileum as intrinsic activity given as 1.0 with respect to histamine (paired 't'test; p>0.05).; assay type: functional, tissue-based
Consider the following compounds and their measured Intrinsic activity readings.
Reply with the value as a number alone.

Answered cases to consult:
NCCc1c[nH]c(C(F)(F)F)n1 ... 1
NCCc1c[nH]c(-c2cccc(OC(F)(F)F)c2)n1 ... 1

Record summary for NCCc1nccs1 : reported Intrinsic activity = 1

Record summary for NCCc1c[nH]c(-c2cc3ccccc3c3ccccc23)n1 : reported Intrinsic activity = 0

Record summary for NCCc1c[nH]c(-c2ccc3ccccc3c2)n1 : reported Intrinsic activity = 0.24

Record summary for NCCc1c[nH]c(-c2ccc(C(F)(F)F)cc2)n1 : reported Intrinsic activity = 0.24

Record summary for NCCc1c[nH]c(Cc2ccccc2C(F)(F)F)n1 : reported Intrinsic activity = 0

====

molecular target: Histamine H1 receptor (Cavia porcellus); test: Contractile effect on isolated guinea pig ileal segments by H1 (histamine) receptor agonism.; type: functional
Could you label it yes if measured pD2 is 6 or higher, and no otherwise?

Solved cases below.
NCCc1c[nH]c(C(F)(F)F)n1 ... no
NCCc1c[nH]c(-c2cccc(OC(F)(F)F)c2)n1 ... yes
NCCc1c[nH]c(-c2ccccc2C(F)(F)F)n1 ... no
NCCc1c[nH]c(-c2cccc(I)c2)n1 ... yes
NCCc1c[nH]c(Cc2ccsc2)n1 ... no

Confirm if pD2 reported for the molecule NCCc1c[nH]c(-c2ccc3ccccc3c2)n1 is 6 or above.
no

====

biological target: UniProt P31389; experiment: Contractile effects on guinea pig aorta as histamine H1 receptor agonism; format: functional, tissue-based
Consider the following compounds and their measured pKb readings.
Reply with the value as a number alone.

NCCc1c[nH]c(-c2cccc(I)c2)n1 ... 9.13
NCCc1c[nH]c(-c2ccccc2)n1 ... 9.1
NCCc1c[nH]c(-c2cccs2)n1 ... 8.83

Record summary for NCCc1c[nH]c(-c2ccsc2)n1 : reported pKb = 9.01

Record summary for NCCc1c[nH]c(-c2cccc(C(F)(F)F)c2)n1 : reported pKb = 9.04

====

Consider the following compounds and their measured pKb readings.
target: Histamine H1 receptor (Cavia porcellus) (UniProt P31389); experiment: The H1 receptor-mediated nature of the ileum contractionhas been verified by competition experiments with the H1 receptor antagonist mepyramine; assay type: functional, tissue-based
Reply with the value as a number alone.

NCCc1c[nH]c(-c2cncc(Br)c2)n1 ... 9.03
NCCc1nccs1 ... 9.17

Now for a further compound.
Record summary for Cc1cccc(-c2nc(CCN)c[nH]2)c1 : reported pKb = 9.04

====

biological target: Histamine H1 receptor (Cavia porcellus); assay: H1-Histamine receptor agonism on guinea pig ileum as intrinsic activity given as 1.0 with respect to histamine (paired 't'test; p>0.05).; type: functional, tissue-based
Consider the following molecules and their measured Intrinsic activity readings.

Answered cases to consult:
NCCc1c[nH]c(-c2ccccc2)n1 ... 1
NCCc1c[nH]c(Cc2cccs2)n1 ... 1
NCCc1c[nH]c(-c2ccsc2)n1 ... 1
NCCc1c[nH]c(-c2cncc(Br)c2)n1 ... 1

Record summary for NCCc1c[nH]c(Cc2ccc(C(F)(F)F)cc2)n1 : reported Intrinsic activity = 0

Record summary for NCCc1c[nH]c(Cc2cccc(Cl)c2)n1 : reported Intrinsic activity = 0.76

Record summary for NCCc1c[nH]c(-c2cccc(C(F)(F)F)c2)n1 : reported Intrinsic activity = 1

Record summary for NCCc1c[nH]c(Cc2ccccc2Cl)n1 : reported Intrinsic activity = 0.54

Record summary for NCCc1c[nH]c(-c2cccc(I)c2)n1 : reported Intrinsic activity = 1

Record summary for NCCc1c[nH]c(-c2ccccc2C(F)(F)F)n1 : reported Intrinsic activity = 0.26

Record summary for NCCc1c[nH]c(-c2cccs2)n1 : reported Intrinsic activity = 1

Record summary for Cc1cccc(-c2nc(CCN)c[nH]2)c1 : reported Intrinsic activity = 1

Record summary for NCCc1c[nH]c(Cc2ccsc2)n1 : reported Intrinsic activity = 1

Record summary for NCCc1c[nH]c(-c2ccco2)n1 : reported Intrinsic activity = 1

Record summary for NCCc1c[nH]c(-c2ccc[nH]2)n1 : reported Intrinsic activity = 0.93

Record summary for NCCc1c[nH]c(Cc2cccc(C(F)(F)F)c2)n1 : reported Intrinsic activity = 0.28

Record summary for NCCc1c[nH]c(-c2cccc(Br)c2)n1 : reported Intrinsic activity = 1

Record summary for NCCc1c[nH]c(-c2csc(Br)c2)n1 : reported Intrinsic activity = 1

====

molecular target: Histamine H1 receptor (Cavia porcellus) (UniProt P31389); assay: Contractile effect on isolated guinea pig ileal segments by H1 (histamine) receptor agonism.; format: functional
Consider the following compounds and their measured pD2 readings.
Reply with the value as a number alone.

NCCc1c[nH]c(-c2cccc(C(F)(F)F)c2)n1 ... 6.81
NCCc1nccs1 ... 6.36
NCCc1c[nH]c(-c2cncc(Br)c2)n1 ... 6.54
NCCc1c[nH]c(-c2ccsc2)n1 ... 6.52
NCCc1c[nH]cn1 ... 6.7

Record summary for NCCc1c[nH]c(-c2ccccc2)n1 : reported pD2 = 6.2
